# Test system: SEM cells
# protocol notes: cell viability relative to DMSO control; higher = less cytotoxic
# condition info: RPMI 5 mM glucose + 10% dialyzed FBS; 48 h; 0.0211 µM
readout: cell viability (%)
A number alone suffices; assume %.

Query string: Provide value of cell viability for this record tested with SEM cells: Cc1nn(Cc2ccccc2Cl)c(C)c1CN(C)CC(O)COc1ccc(Cl)cc1 (stereo not given)
Result string: 103

Query string: # repeat for C[C@]12COC(=O)C[C@@H]1CC[C@@H]1[C@@H]2CC[C@@]2(C)[C@H]1CC[C@]2(C)O
Result string: 111

Query string: # repeat for CNCCCC12CCC(c3ccccc31)c1ccccc12
Result string: 110

Query string: # repeat for Cc1coc2c1C(=O)C(=O)c1c-2ccc2c(C)cccc12
Result string: 19.3

Query string: # repeat for COCC1(CO)C(=O)C2CCN1CC2 (stereo not given)
Result string: 105

Query string: # repeat for C[C@H]1C[C@@H]2[C@H](CC[C@@]3(C)[C@H]2CC[C@]3(OC(C)=O)C(C)=O)[C@@]\4(C)CCC(=O)\C=C14
Result string: 105

Query string: # repeat for C[C@]12CC[C@@H]3c4ccc(O)cc4CC[C@H]3[C@@H]1[C@@H](O)[C@@H](O)[C@@H]2O
Result string: 118

Query string: # repeat for Cc1c(C)n(Cc2ccc(-c3ccccc3C(=O)O)cc2)c2ccc(C(=O)N[C@@H](C)c3ccc([N+](=O)[O-])cc3)cc12
Result string: 112

Query string: # repeat for O=C1[C@H](Cc2ccc(O)cc2)N2C(=O)CCN(C(=O)NCc3ccccc3)[C@H]2CN1Cc1cccc2ccccc12
Result string: 95

Query string: # repeat for CNC(=O)c1c(-c2ccc(F)cc2)oc2cc(N(CCO)[S+](C)(=O)[O-])c(C3CC3)cc12
Result string: 106

Query string: # repeat for CC(C)C1NC(=O)C(NC(=O)C2=C3\N=C\4/C(=C(C)\C(=O)\C(=C4C(=O)NC5C(C)OC(=O)C(C(C)C)N(C)C(=O)CN(C)C(=O)C6CCCN6C(=O)C(NC5=O)C(C)C)N)OC3=C(C)C=C2)C(C)OC(=O)C(C(C)C)N(C)C(=O)CN(C)C(=O)C7CCCN7C1=O (stereo not given)
Result string: 7.7

Query string: # repeat for C[S+](=O)([O-])Nc1ccc([N+](=O)[O-])cc1Oc1ccccc1
Result string: 110

Query string: # repeat for O=C(O)Cn1nnc(-c2cc(N3CCC(Oc4cc(F)ccc4Br)CC3)no2)n1
Result string: 106

Query string: # repeat for Nc1ncnc2c1ncn2[C@@H]1O[C@@H](CO)[C@H](O)[C@@H]1O
Result string: 112

Query string: # repeat for OC(c1cc(C(F)(F)F)nc2c(C(F)(F)F)cccc12)C1CCCCN1 (stereo not given)
Result string: 136

Query string: # repeat for CN[C@@H]1[C@@H](O)[C@@H](O[C@@H]2[C@@H](O)[C@H](O[C@H]3O[C@H](CN)[C@@H](O)[C@H](O)[C@H]3O)[C@@H](N)C[C@H]2NC(=O)[C@@H](O)CN)OC[C@]1(C)O
Result string: 125

Query string: # repeat for O=c1[nH]c(=O)n([C@H]2C[C@H](O)[C@@H](CO)O2)cc1/C=C/Br
Result string: 98.6

Query string: # repeat for CCN(CC)CCOc1ccc(/C(=C(\Cl)c2ccccc2)c2ccccc2)cc1
Result string: 127

Query string: # repeat for O=C(O)CCC1CCC(c2cc(F)ccc2F)([S+](=O)([O-])c2ccc(Cl)cc2)CC1 (stereo not given)
Result string: 122

Query string: # repeat for O=C(Nc1cc(Cl)cc2c1[nH]c1cnccc12)c1cccnc1
Result string: 108

The values you see were collected from the supplement of paper PMC11451515.
